Every entry's value here was drawn from paper PMC4330696.

# measurement.target: VvSERAT2;1 (Vitis vinifera, UniProt F6HCV5)
# Construct: gene VIT_00s0194g00120; N-terminal His tag (pET28a), E. coli; lacks predicted transit peptide (57 residues predicted); naturally lacks canonical C-terminal tail; free SERAT without OASTL
# Sequence (F6HCV5 58-306): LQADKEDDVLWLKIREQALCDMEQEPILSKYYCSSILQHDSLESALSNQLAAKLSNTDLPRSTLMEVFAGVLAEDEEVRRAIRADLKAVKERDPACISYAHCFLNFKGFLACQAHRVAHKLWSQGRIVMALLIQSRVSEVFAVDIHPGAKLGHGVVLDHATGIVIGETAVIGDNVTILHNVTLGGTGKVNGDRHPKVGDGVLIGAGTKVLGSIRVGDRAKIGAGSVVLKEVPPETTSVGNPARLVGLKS
# assay.comment: SERAT activity assay, titration with cysteine up to […]
# Assay type: biochemical
# condition.label: read-out: Cys Inhibition (IC50 mM)
measured.attribute: IC50 (mM)
One number for each entry, in mM.

The compound listed as N[C@@H](CS)C(=O)O shows IC50 equal to 1.9
